experiment: folding stability dG unfold from chymotrypsin proteolysis; higher = more stable
Classify by folding stability dG unfold. Ranges: group 1: < 4 kJ/mol; group 2: ≥ 4 kJ/mol and < 8 kJ/mol; group 3: ≥ 8 kJ/mol

[
  {
    "sequence": "SAGGSAESIPVDELVELAKKLGLDVTVTPLPETGLVRVEITFTTPDGSKVPATVLVHPDGRTTVFPSAGGSA [r15_1051_TrMRF]",
    "category": "group 3"
  },
  {
    "sequence": "SAGGSAGGSAGDGINFTLDIPIEGDFELRDVYLTPLEPENRRAFFLLRYKDGPVLLTLPLSAGGSAGGSAGG [r11_1013_TrMRF]",
    "category": "group 1"
  },
  {
    "sequence": "SAGGSAGGYWMISVKIYDPEDGKPIAQMTFMFDSPEEAERIVEEIADALPPGYRVEVDIHPIPNSAGGSAGG [r6_690_TrROS]",
    "category": "group 3"
  },
  {
    "sequence": "SAGGSSMKTSETTDPANGTPVRVETSIDPATNKVTTTVTTPDGTTVGSGTITIPPESSVTTTTTTTTPASAG [r5_747_JUSTAS]",
    "category": "group 2"
  },
  {
    "sequence": "SAGGKVYEFEIEVELLDPETGKPKKIKLKVPVFVDPKTGKVTKKVEAEPEPNVPKEEAEKIAKEIIEAESAG [r14_152_TrMRF]",
    "category": "group 2"
  },
  {
    "sequence": "SAGGMKIRIPEGQEVKLKKVRFWHNGKPWKIPNMEIKVDRIDPNDNRVQIEIKHPNGRPHTFAFDIKSAGGS [r8_215_TrROS]",
    "category": "group 1"
  },
  {
    "sequence": "SAGGSVEKKLLEYDPATGNRLVEVTAKAKPEVVEELIAKGYDPSTISPLGDGTVRALLTIPPDEKLDSAGGS [r16_755_JUSTAS]",
    "category": "group 1"
  },
  {
    "sequence": "SAGGSPATVLSSSTLSTTPLPDGTTLTTSETVTLLPNGEPVVTTTTTTTAPDGSVTTTTTTTPLDAASAGGS [r16_261_JUSTAS]",
    "category": "group 1"
  },
  {
    "sequence": "SADGKVKVVVNLRITVTPLSPDGTPQPLPAASIPLVFEGDANDPEAVEQAVRDVLDALAPLFPDAEIVVDSA [r9_1112_TrMRF]",
    "category": "group 3"
  },
  {
    "sequence": "SAGGEKEYVEVTLEIEIEIELEPGESAEEIARKLAEELGAEITEVRVERLPDGTVKITVTVRVKLPPSAGGS [r8_292_TrROS_Hall]",
    "category": "group 3"
  }
]
